Overview of recorded IC50 at 48 h for various compounds
experiment-description: Cytotoxicity against African green monkey Vero cells assessed as cell growth inhibition incubated for 48 hrs by MTT assay
Type: toxicity, cell-based
conditions-used: African green monkey (Chlorocebus sabaeus)
observable: IC50 at 48 h (µM)

INSERT INTO measurements (mol_smiles, relational_operator, measured) VALUES
  ('COc1cc(C)c(-c2cc(O)cc3cc4c(c(O)c23)C(=O)c2c(cc(OC)c(Br)c2O)C4(C)C)c(O)c1', '=', 2.8),
  ('COc1cc(C)c(-c2cc(OC)cc3cc4c(c(O)c23)C(=O)c2c(cc(O)c(Br)c2O)C4(C)C)c(O)c1', '=', 9),
  ('COC1=CC(=O)C(c2cc(OC)cc3cc4c(c(O)c23)C(=O)c2c(O)cc(O)cc2C4(C)C)=C(C)C1=O', '=', 15.1),
  ('COc1cc(C)c(-c2cc(O)cc3cc4c(c(O)c23)C(=O)c2c(O)cc(OC)cc2C4(C)C)c(O)c1', '=', 6.7),
  ('COc1cc(C)c(-c2cc(O)cc3cc4c(c(O)c23)C(=O)c2c(cc(OC)c(Br)c2OC)C4(C)C)c(O)c1', '=', 5.8),
  ('COc1cc(C)c(C(=O)c2c(CC(C)=O)cc3c(c2O)C(=O)c2c(cc(OC)c(Br)c2OC)C3(C)C)c(OC)c1', '>', 50),
  ('COc1cc(C)c(-c2cc(OC)cc3cc4c(c(O)c23)C(=O)c2c(OC)cc(OC)cc2C4(C)C)c(O)c1', '=', 9),
  ('COc1cc(C)c(-c2cc(O)c(Br)c3cc4c(c(O)c23)C(=O)c2c(cc(OC)c(Br)c2O)C4(C)C)c(O)c1', '=', 15.1);
